Provenance of the data: patent US20250361295A1

- Measured on: T1, human LILRB2 (human, UniProt Q8N423 22-597)
- T1 construct: whole, on cells; also called hLILRB2
- Test method notes: FACS, 293F-hLILRB2 cells
Test readout: MFI (MFI)

>>> number("10-H9-E3-G3 (antibody, V domains shown, mouse monoclonal hybridoma antibody) VH: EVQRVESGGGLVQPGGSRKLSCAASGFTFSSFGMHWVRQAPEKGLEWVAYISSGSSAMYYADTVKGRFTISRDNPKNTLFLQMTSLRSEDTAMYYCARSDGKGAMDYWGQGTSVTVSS VL: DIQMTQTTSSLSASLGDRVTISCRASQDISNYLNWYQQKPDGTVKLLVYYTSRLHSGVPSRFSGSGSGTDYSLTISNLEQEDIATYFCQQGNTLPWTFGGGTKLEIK")
29.5
>>> number("26-H9-B9-B7 (antibody, V domains shown, mouse monoclonal hybridoma antibody) VH: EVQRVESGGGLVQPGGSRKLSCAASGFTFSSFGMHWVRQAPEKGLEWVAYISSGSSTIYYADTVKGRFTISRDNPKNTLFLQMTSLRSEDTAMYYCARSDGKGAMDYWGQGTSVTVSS VL: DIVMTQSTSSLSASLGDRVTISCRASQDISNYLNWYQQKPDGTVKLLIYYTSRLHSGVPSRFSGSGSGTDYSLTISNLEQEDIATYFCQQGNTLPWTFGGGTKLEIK")
28.8
